Source: patent US20230390352A1

methodSummary: stability (content) of ingredients included in the Salvia miltiorrhiza extract on storage
Format: physicochemical
experimentalSetup: extract made with 100% EtOH, 5 days at room temperature
outcomeMeasure: Content (mg/g) of ingredient after 5 days of storage at room temperature of extract

- sampleSmiles: "O=C(O)[C@H](O)Cc1ccc(O)c(O)c1"
  resultUnits: "mg/g"
  measured: 17.33
- sampleSmiles: "Cc1coc2c1C(=O)c1ccc3c(C)cccc3c1C2=O"
  resultUnits: "mg/g"
  measured: 10.33
- sampleSmiles: "O=C(/C=C/c1ccc(O)c2c1[C@H](C(=O)O[C@H](Cc1ccc(O)c(O)c1)C(=O)O)[C@@H](c1ccc(O)c(O)c1)O2)O[C@H](Cc1ccc(O)c(O)c1)C(=O)O"
  resultUnits: "mg/g"
  measured: 15.27
- sampleSmiles: "Cc1coc2c1C(=O)C(=O)c1c-2ccc2c1CCCC2(C)C"
  resultUnits: "mg/g"
  measured: 5.24
